meta.source: paper PMC9170038

target_entity: MS2 coat protein, dlFG mutant (Escherichia phage MS2, UniProt P03612, del68-81insG)
assay_text: 4 mM Mg2+; no ligand; RNA-MaP array; 100 mM Tris-HCl pH 7.5, 80 mM KCl, 4 mM MgCl2, 0.1 mg/mL BSA, 1 mM DTT, 0.01 mg/mL yeast tRNA, 0.01% Tween-20; protein 1.5 nM to 3 uM; 37 C (Table S3)
reported_conditions: chain copies: 2; label: tethered by stalled RNA polymerase
pKd: −log10 of the molar value.
result_type: pKd

binder: Eterna 6381351 (Inverted Exclusion NG 3) (ssRNA) RNA: CGAUAUAUGAAGGGCGAAAGCCCACAUGAGGAUCACCCAUGUAGAAGGCGGGCCGCAACGCGGCCCGAGGAUAUAUAAUAUACA
inequality_sign: =
value_observed: 8.13
//
binder: Eterna 6461519 (Inverted Same State NG 1) (ssRNA) RNA: GUGCCUAACUAGAAGGCCCAAUGCAAAGCAUCGGGAGGAUAUGGGUUUAAUAAAUAAACAUGAGGAUCACCCAUGUGGCACAAA
inequality_sign: =
value_observed: 7.34
//
binder: Eterna 6145156 (Exclusion NG 1) (ssRNA) RNA: UUAAAUCAUGUAGGAUAUGCAUGGCGAAGCUACGCAGAAGGACAUGAGGAUCACCCAUGUUAUAGCUACCGAAUAAGGUGGCAA
inequality_sign: =
value_observed: 7.04
//
binder: Eterna 7734981 (Same State - FMN A) (ssRNA) RNA: UGUGAGCUGUCGACAAAAGUCGACUAAAGCGAGGAUAUGACGAAAGUCAGAAGGCGUCAAUAAUGGAGUGAUGUUCCUGCUCACU
inequality_sign: <
value_observed: 5.52
//
binder: Eterna 6395528 (Inverted Small Loop Exclusion NG 1) (ssRNA) RNA: ACAUGGUAGUAGAAGGGUAUUACUUUAGAUACAACCAUUUGUUUAGUUUAUACAGGAUAUGCUUACAUGAGGAUCACCCAUGUU
inequality_sign: =
value_observed: 8.03
